Recorded relative viability, one value per entry.
tested on: NCI-H1755; test: relative viability (nuclei count vs DMSO), 5 days (fraction); higher = more cells survive; settings: first compound 0.3162 µM
reportedProperty: relative viability

NC(=O)Nc1cc(-c2cccc(F)c2)sc1C(=O)N[C@H]1CCCNC1 [AZD7762] + Cc1nc(Nc2ncc(C(=O)Nc3c(C)cccc3Cl)s2)cc(N2CCN(CCO)CC2)n1 [Dasatinib] (partner 0.075 µM)
0.325
NC(=O)Nc1cc(-c2cccc(F)c2)sc1C(=O)N[C@H]1CCCNC1 [AZD7762] + CCNC(=O)c1noc(-c2cc(C(C)C)c(O)cc2O)c1-c1ccc(CN2CCOCC2)cc1 [Luminespib] (partner 0.01 µM)
0.225
NC(=O)Nc1cc(-c2cccc(F)c2)sc1C(=O)N[C@H]1CCCNC1 [AZD7762] + CC(=O)c1c(C)c2cnc(Nc3ccc(N4CCNCC4)cn3)nc2n(C2CCCC2)c1=O [Palbociclib] (partner 0.5 µM)
0.495
NC(=O)Nc1cc(-c2cccc(F)c2)sc1C(=O)N[C@H]1CCCNC1 [AZD7762] + CC1(C)CCC(c2ccc(Cl)cc2)=C(CN2CCN(c3ccc(C(=O)NS(=O)(=O)c4ccc(N[C@H](CCN5CCOCC5)CSc5ccccc5)c(S(=O)(=O)C(F)(F)F)c4)cc3)CC2)C1 [Navitoclax] (partner 0.5 µM)
1.08
NC(=O)Nc1cc(-c2cccc(F)c2)sc1C(=O)N[C@H]1CCCNC1 [AZD7762] + COc1cc2c(Oc3ccc(NC(=O)C4(C(=O)Nc5ccc(F)cc5)CC4)cc3F)ccnc2cc1OCCCN1CCOCC1 [Foretinib] (partner 0.25 µM)
0.918
NC(=O)Nc1cc(-c2cccc(F)c2)sc1C(=O)N[C@H]1CCCNC1 [AZD7762] + N=C(N)NC(=N)NCCc1ccccc1 [Phenformin] (partner 250 µM)
0.596
NC(=O)Nc1cc(-c2cccc(F)c2)sc1C(=O)N[C@H]1CCCNC1 [AZD7762] + Cc1cc(Nc2cc(N3CCN(C)CC3)nc(Sc3ccc(NC(=O)C4CC4)cc3)n2)n[nH]1 [Tozasertib] (partner 0.1 µM)
0.539
NC(=O)Nc1cc(-c2cccc(F)c2)sc1C(=O)N[C@H]1CCCNC1 [AZD7762] + COc1cccc2cc(-c3nc([C@H]4CC[C@H](C(=O)O)CC4)n4ncnc(N)c34)[nH]c12 [OSI-027] (partner 0.5 µM)
0.712

###

tested on: NCI-H647; test: relative viability (nuclei count vs DMSO), 5 days (fraction); higher = more cells survive; details: first compound 1 µM
reportedProperty: relative viability

NC(=O)Nc1cc(-c2cccc(F)c2)sc1C(=O)N[C@H]1CCCNC1 [AZD7762] + C[C@@H](Oc1cc(-c2cnn(C3CCNCC3)c2)cnc1N)c1c(Cl)ccc(F)c1Cl [Crizotinib] (partner 1 µM)
0.105
NC(=O)Nc1cc(-c2cccc(F)c2)sc1C(=O)N[C@H]1CCCNC1 [AZD7762] + C[C@]1(O)C[C@@H](c2nc(-c3ccc4ccc(-c5ccccc5)nc4c3)c3c(N)nccn32)C1 [Linsitinib] (partner 1 µM)
0.153
NC(=O)Nc1cc(-c2cccc(F)c2)sc1C(=O)N[C@H]1CCCNC1 [AZD7762] + Nc1nc2[nH]cc(CCc3ccc(C(=O)N[C@@H](CCC(=O)O)C(=O)O)cc3)c2c(=O)[nH]1 [Pemetrexed] (partner 0.2 µM)
0.0641
NC(=O)Nc1cc(-c2cccc(F)c2)sc1C(=O)N[C@H]1CCCNC1 [AZD7762] + CC1(C)CCC(c2ccc(Cl)cc2)=C(CN2CCN(c3ccc(C(=O)NS(=O)(=O)c4ccc(N[C@H](CCN5CCOCC5)CSc5ccccc5)c(S(=O)(=O)C(F)(F)F)c4)cc3)CC2)C1 [Navitoclax] (partner 0.5 µM)
0.277
NC(=O)Nc1cc(-c2cccc(F)c2)sc1C(=O)N[C@H]1CCCNC1 [AZD7762] + CS(=O)(=O)CCNCc1ccc(-c2ccc3ncnc(Nc4ccc(OCc5cccc(F)c5)c(Cl)c4)c3c2)o1 [Lapatinib] (partner 2 µM)
0.0944
NC(=O)Nc1cc(-c2cccc(F)c2)sc1C(=O)N[C@H]1CCCNC1 [AZD7762] + Nc1ncn([C@H]2C[C@H](O)[C@@H](CO)O2)c(=O)n1 [Decitabine] (partner 2 µM)
0.156
NC(=O)Nc1cc(-c2cccc(F)c2)sc1C(=O)N[C@H]1CCCNC1 [AZD7762] + Cc1nc(Nc2ncc(C(=O)Nc3c(C)cccc3Cl)s2)cc(N2CCN(CCO)CC2)n1 [Dasatinib] (partner 0.075 µM)
0.0925

###

tested on: NCI-H441; experiment: relative viability (nuclei count vs DMSO), 5 days (fraction); higher = more cells survive; settings: first compound 0.3162 µM
Recorded relative viability, one value per entry.
reportedProperty: relative viability

NC(=O)Nc1cc(-c2cccc(F)c2)sc1C(=O)N[C@H]1CCCNC1 [AZD7762] + CC1(C)CCC(c2ccc(Cl)cc2)=C(CN2CCN(c3ccc(C(=O)NS(=O)(=O)c4ccc(N[C@H](CCN5CCOCC5)CSc5ccccc5)c(S(=O)(=O)C(F)(F)F)c4)cc3)CC2)C1 [Navitoclax] (partner 0.5 µM)
0.479
NC(=O)Nc1cc(-c2cccc(F)c2)sc1C(=O)N[C@H]1CCCNC1 [AZD7762] + CS(=O)(=O)N1CCN(Cc2cc3nc(-c4cccc5[nH]ncc45)nc(N4CCOCC4)c3s2)CC1 [Pictilisib] (partner 1 µM)
0.556

###

Recorded relative viability, one value per entry.
test system: HCC-827; assay: relative viability (nuclei count vs DMSO), 5 days (fraction); higher = more cells survive; conditions: first compound 2.53 µM
reportedProperty: relative viability

Oc1nc(-c2ccc(C(F)(F)F)cc2)nc2c1CSCC2 [XAV939] + Nc1ncn([C@H]2C[C@H](O)[C@@H](CO)O2)c(=O)n1 [Decitabine] (partner 2 µM)
0.254
Oc1nc(-c2ccc(C(F)(F)F)cc2)nc2c1CSCC2 [XAV939] + CC(=O)Nc1cccc(-n2c(=O)n(C3CC3)c(=O)c3c(Nc4ccc(I)cc4F)n(C)c(=O)c(C)c32)c1 [Trametinib] (partner 0.02 µM)
0.514
C=C1C(=O)O[C@@H](CCCCCCCC)[C@@H]1C(=O)O [C-75] + CS(=O)(=O)CCNCc1ccc(-c2ccc3ncnc(Nc4ccc(OCc5cccc(F)c5)c(Cl)c4)c3c2)o1 [Lapatinib] (partner 2 µM)
0.191
Oc1nc(-c2ccc(C(F)(F)F)cc2)nc2c1CSCC2 [XAV939] + Nc1nc2[nH]cc(CCc3ccc(C(=O)N[C@@H](CCC(=O)O)C(=O)O)cc3)c2c(=O)[nH]1 [Pemetrexed] (partner 0.2 µM)
0.245
Oc1nc(-c2ccc(C(F)(F)F)cc2)nc2c1CSCC2 [XAV939] + C[C@]1(O)C[C@@H](c2nc(-c3ccc4ccc(-c5ccccc5)nc4c3)c3c(N)nccn32)C1 [Linsitinib] (partner 1 µM)
0.942
C=C1C(=O)O[C@@H](CCCCCCCC)[C@@H]1C(=O)O [C-75] + N=C(N)NC(=N)NCCc1ccccc1 [Phenformin] (partner 250 µM)
0.36
Oc1nc(-c2ccc(C(F)(F)F)cc2)nc2c1CSCC2 [XAV939] + O=C(CCCCCCC(=O)Nc1ccccc1)NO [Vorinostat] (partner 1 µM)
0.686
Oc1nc(-c2ccc(C(F)(F)F)cc2)nc2c1CSCC2 [XAV939] + CC1(C)CCC(c2ccc(Cl)cc2)=C(CN2CCN(c3ccc(C(=O)NS(=O)(=O)c4ccc(N[C@H](CCN5CCOCC5)CSc5ccccc5)c(S(=O)(=O)C(F)(F)F)c4)cc3)CC2)C1 [Navitoclax] (partner 0.5 µM)
1.04
Oc1nc(-c2ccc(C(F)(F)F)cc2)nc2c1CSCC2 [XAV939] + N=C(N)NC(=N)NCCc1ccccc1 [Phenformin] (partner 250 µM)
0.394
C=C1C(=O)O[C@@H](CCCCCCCC)[C@@H]1C(=O)O [C-75] + C[C@]1(O)C[C@@H](c2nc(-c3ccc4ccc(-c5ccccc5)nc4c3)c3c(N)nccn32)C1 [Linsitinib] (partner 1 µM)
0.972
Oc1nc(-c2ccc(C(F)(F)F)cc2)nc2c1CSCC2 [XAV939] + CC(=O)c1c(C)c2cnc(Nc3ccc(N4CCNCC4)cn3)nc2n(C2CCCC2)c1=O [Palbociclib] (partner 0.5 µM)
0.517
C=C1C(=O)O[C@@H](CCCCCCCC)[C@@H]1C(=O)O [C-75] + CS(=O)(=O)N1CCN(Cc2cc3nc(-c4cccc5[nH]ncc45)nc(N4CCOCC4)c3s2)CC1 [Pictilisib] (partner 1 µM)
0.694
C=C1C(=O)O[C@@H](CCCCCCCC)[C@@H]1C(=O)O [C-75] + COc1cc2c(Oc3ccc(NC(=O)C4(C(=O)Nc5ccc(F)cc5)CC4)cc3F)ccnc2cc1OCCCN1CCOCC1 [Foretinib] (partner 0.25 µM)
0.965
